Target: Mitogen-activated protein kinase kinase kinase kinase 1 (Homo sapiens)
Assay: Inhibition of N-terminal DYKDDDDK tagged HPK1 CD (1 to 346 residues) (unknown origin) incubated for 1 hr in presence of ATP by TR-FRET assay
Sequence (Q92918 whole entry, the tested form may be a part): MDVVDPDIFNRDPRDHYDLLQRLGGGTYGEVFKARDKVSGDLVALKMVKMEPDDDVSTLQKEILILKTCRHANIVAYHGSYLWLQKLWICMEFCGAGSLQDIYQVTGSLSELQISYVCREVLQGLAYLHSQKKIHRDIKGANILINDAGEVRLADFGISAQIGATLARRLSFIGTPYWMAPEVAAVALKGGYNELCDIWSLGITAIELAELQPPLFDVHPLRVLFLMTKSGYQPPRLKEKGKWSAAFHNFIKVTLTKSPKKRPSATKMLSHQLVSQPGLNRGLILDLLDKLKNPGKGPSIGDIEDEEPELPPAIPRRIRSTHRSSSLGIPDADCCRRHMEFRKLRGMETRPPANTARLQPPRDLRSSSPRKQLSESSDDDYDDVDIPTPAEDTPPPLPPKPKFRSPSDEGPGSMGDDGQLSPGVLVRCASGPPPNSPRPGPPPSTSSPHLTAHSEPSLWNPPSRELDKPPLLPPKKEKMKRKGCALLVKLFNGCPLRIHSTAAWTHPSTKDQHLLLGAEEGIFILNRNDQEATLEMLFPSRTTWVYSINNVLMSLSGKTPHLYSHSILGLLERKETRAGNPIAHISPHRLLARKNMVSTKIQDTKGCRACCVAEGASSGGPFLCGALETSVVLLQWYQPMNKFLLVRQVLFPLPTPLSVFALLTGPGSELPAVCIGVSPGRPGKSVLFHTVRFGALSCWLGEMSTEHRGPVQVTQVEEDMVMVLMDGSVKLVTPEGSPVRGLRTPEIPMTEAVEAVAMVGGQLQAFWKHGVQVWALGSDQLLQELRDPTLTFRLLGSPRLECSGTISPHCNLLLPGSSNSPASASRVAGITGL
attribute-measured: IC50
Returns: string containing the number followed by the unit.

What measured IC50 is associated with Cc1c(-c2cc3cc(NC(=O)C4CC4)ncc3c(N)c2F)cnc2c1NCCO2 on Mitogen-activated protein kinase kinase kinase kinase 1 (Homo sapiens)?
0.067 nM

* * *

Biological target: Mitogen-activated protein kinase kinase kinase kinase 1 (Homo sapiens, UniProt Q92918)
Assay: Inhibition of HPK1 (unknown origin) at 1 uM using myelin basic protein as substrate incubated for 60 mins in presence of ATP by ADP-Glo kinase assay relative to control
Sequence (Q92918 whole entry, looked up, the tested form may be a part): as the sequence (Q92918 whole entry, the tested form may be a part) above
Answer Criterion not met if inhibition is under 90%, and Criterion met if it is 90% or more.

# example entries with known answers
# smi, class-assignment
records = [
    ("Cc1nn(C)cc1-c1cc(N)c2cnc(Nc3cnn(C4CC4)c3)nc2c1", "Criterion not met"),
    ("Cn1nccc1-c1cc(N)c2cnc(Nc3cnn(C4CC4)c3)nc2c1", "Criterion not met"),
    ("Nc1cc(-c2cccnc2)cc2nc(Nc3cnn(C4CC4)c3)ncc12", "Criterion not met"),
]

Now look at this entry.
Check if inhibition >= 90% (inclusive). Item: CC1(C)OC(=O)c2ccc(Nc3ncc(-c4nnco4)c(N[C@H](CO)c4ccccc4)n3)cc21
Criterion met
